target_of_assay: JAK2 (Homo sapiens (Human), UniProt O60674)
Sequence (O60674 849-1124): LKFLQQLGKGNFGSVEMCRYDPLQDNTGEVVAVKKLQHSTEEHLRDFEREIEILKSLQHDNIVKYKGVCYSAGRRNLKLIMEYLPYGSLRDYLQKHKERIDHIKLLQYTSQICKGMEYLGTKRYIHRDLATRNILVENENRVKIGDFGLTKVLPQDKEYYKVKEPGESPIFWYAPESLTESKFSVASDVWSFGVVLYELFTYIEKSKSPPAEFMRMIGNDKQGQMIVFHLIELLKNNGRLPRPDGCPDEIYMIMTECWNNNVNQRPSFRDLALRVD
assay_notes: JAK2 Ki determination assay (polyGT, 33P filter plate)
Assay type: biochemical
conditions: Lineweaver-Burk; polyGT substrate, 33P readout
quantity_name: pKi
Keep it numeric: pKi is minus log10 of the concentration in mol/L.

Exercise: What measured pKi goes with CC1(C)CN(C(=O)c2ccc(-c3cccc4nc(NC(=O)C5CC5)nn34)cc2)C1 [Compound 1] ?
Key: 6.90

###

target_of_assay: Recombinant human JAK3 catalytic domain (Homo sapiens (Human))
Sequence (P52333 781-1124): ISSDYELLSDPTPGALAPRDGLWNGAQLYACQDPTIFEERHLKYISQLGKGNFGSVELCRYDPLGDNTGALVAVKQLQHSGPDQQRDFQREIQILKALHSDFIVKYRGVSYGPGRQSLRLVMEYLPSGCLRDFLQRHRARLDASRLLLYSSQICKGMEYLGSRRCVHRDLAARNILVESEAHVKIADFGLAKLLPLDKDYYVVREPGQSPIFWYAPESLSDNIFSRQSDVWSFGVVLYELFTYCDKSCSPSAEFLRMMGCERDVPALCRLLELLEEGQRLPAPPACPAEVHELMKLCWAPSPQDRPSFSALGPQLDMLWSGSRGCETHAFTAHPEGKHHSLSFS
assay_notes: JAK3 inhibition assay
conditions: average ± standard error of the mean; 1 μM ATP
quantity_name: pIC50
Answer as the number alone; pIC50 is minus log10 of concentration in mol/L.

Exercise: What value of pIC50 on Recombinant human JAK3 catalytic domain (Homo sapiens (Human)) does `CC1(C)CN(C(=O)c2ccc(-c3cccc4nc(NC(=O)C5CC5)nn34)cc2)C1` have?
Key: 6.39

Taken from patent US8796457B2.
